System: OVCAR-3
Assay: NCI tumour cell line growth inhibition, 48 h
Activity calls are given as the source filed them. Rule as the data show it: active = GI50 up to about 1.1 µM and inactive = higher.
Exercise: state measured GI50 for each of the compounds provided.

Recall the reported GI50 of Cc1ccc2ccc(O)cc2c1 on OVCAR-3 and write it down.
10.2 µM (inactive)

Consider the compound COc1cc(OCc2ccc3nc(OC)c(OC)nc3c2)cc(OC)c1OC tested on OVCAR-3; state its GI50.
> 10 µM (inactive)

# assay system OVCAR-3: give GI50 of COC(=O)C(Cc1ccccc1)NP(=O)(O)OCC1OC(n2cc(I)c(=O)[nH]c2=O)CC1O (stereo unspecified)
> 100 µM (inactive)

Report GI50 on OVCAR-3 for this entry: CNC(=S)N/N=C/c1cccc(C)n1
29.9 µM (inactive)

Provide GI50, tested on OVCAR-3, for CCOc1snc(C(Cl)(Cl)Cl)c1Cl .
14.1 µM (inactive)

Look up OVCAR-3 data: GI50 of O=C1C2CC=CCC2C(=O)N1n1c(-c2ccccc2)n[nH]c1=O (stereo unspecified) , then report it.
> 100 µM (inactive)
